Assignment: determine reported Tmax for the given substances.
test: Pharmacokinetics in Sprague Dawley rats, single subcutaneous or intravenous dose (incl. 10, 30, 100 nmol/kg dose response); type: in vivo; settings: male, Sprague Dawley, rat, plasma, sc, 100 nmol/kg, dose response, single subcutaneous dose 100 nmol/kg, mean, read-out: Tmax
*1 amine or outer side, *2 acyl side, *3 side chain or, on linkers, in order; H or OH if unused. Side-chain parts run from the residue outwards. [ ]: non-standard residue; d: D form. The star is where a group is joined. C20 diacid = O=C(O)CCCCCCCCCCCCCCCCCCC(=O)*; γGlu = O=C(O)[C@H](CCC(=O)[*:2])N[*:1]; εLys = N[C@@H](CCCCN[*:1])C(=O)[*:2]; pGlu = O=C1CC[C@@H](C(=O)O)N1; αMeL = CC(C)C[C@](C)(N)C(=O)O; AEEA = NCCOCCOCC(=O)O; Aib = CC(C)(N)C(=O)O
Give bare numbers, in h.

Recorded results for 2 substances are shown here.
substance: {C20 diacid-εLys-AEEA-γGlu}-GSPSIVTS[αMeL]DVPT[Aib][αMeL]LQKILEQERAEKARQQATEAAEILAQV-NH2 [SEQ ID NO: 25]
measured_number: 24
--
substance: Ac-GSPSIVTS[αMeL]DVPT[Aib][αMeL]LQKILEQERAEKARQQAK([γGlu-AEEA-εLys-C20 diacid])EAAEILAQV-NH2 [SEQ ID NO: 1]
measured_number: 24

Recorded Tmax (substance [pGlu]GSPSGIVTS[αMeL]DVPT[Aib][αMeL]LQKILEQERAEKARQQAK([γGlu-AEEA-εLys-C20 diacid])EAAEILAQV-NH2 [SEQ ID NO: 22] ): 24

###

assay: Pharmacokinetics in Sprague Dawley rats, single subcutaneous or intravenous dose (incl. 10, 30, 100 nmol/kg dose response); type: in vivo; conditions: rat, plasma, sc; dose response, single subcutaneous dose 100 nmol/kg, male Sprague Dawley rats, mean; read-out: AUC0-inf
*1 amine or outer side, *2 acyl side, *3 side chain or, on linkers, in order; H or OH if unused. Side-chain parts run from the residue outwards. [ ]: non-standard residue; d: D form. The star is where a group is joined. C20 diacid = O=C(O)CCCCCCCCCCCCCCCCCCC(=O)*; γGlu = O=C(O)[C@H](CCC(=O)[*:2])N[*:1]; εLys = N[C@@H](CCCCN[*:1])C(=O)[*:2]; pGlu = O=C1CC[C@@H](C(=O)O)N1; αMeL = CC(C)C[C@](C)(N)C(=O)O; AEEA = NCCOCCOCC(=O)O; Aib = CC(C)(N)C(=O)O
parameter_measured: AUC0-inf (µM·h)
Numbers only, in µM·h.

The following substances have reported results that may help.
substance: Ac-GSPSIVTS[αMeL]DVPT[Aib][αMeL]LQKILEQERAEKARQQAK([γGlu-AEEA-εLys-C20 diacid])EAAEILAQV-NH2 [SEQ ID NO: 1]
units_symbol: µM·h
AUC0-inf: 20.2
--
substance: {C20 diacid-εLys-AEEA-γGlu}-GSPSIVTS[αMeL]DVPT[Aib][αMeL]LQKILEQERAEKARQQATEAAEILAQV-NH2 [SEQ ID NO: 25]
units_symbol: µM·h
AUC0-inf: 13.3

substance [pGlu]GSPSGIVTS[αMeL]DVPT[Aib][αMeL]LQKILEQERAEKARQQAK([γGlu-AEEA-εLys-C20 diacid])EAAEILAQV-NH2 [SEQ ID NO: 22] , AUC0-inf observed: 26.3

###

experiment: Pharmacokinetics in Sprague Dawley rats, single subcutaneous or intravenous dose (incl. 10, 30, 100 nmol/kg dose response); type: in vivo; conditions: male, Sprague Dawley, rat, plasma, iv, 183 nmol/kg, single intravenous dose 183 nmol/kg, Mean
*1 amine or outer side, *2 acyl side, *3 side chain or, on linkers, in order; H or OH if unused. Side-chain parts run from the residue outwards. [ ]: non-standard residue; d: D form. The star is where a group is joined. C20 diacid = O=C(O)CCCCCCCCCCCCCCCCCCC(=O)*; γGlu = O=C(O)[C@H](CCC(=O)[*:2])N[*:1]; εLys = N[C@@H](CCCCN[*:1])C(=O)[*:2]; pGlu = O=C1CC[C@@H](C(=O)O)N1; αMeL = CC(C)C[C@](C)(N)C(=O)O; AEEA = NCCOCCOCC(=O)O; Aib = CC(C)(N)C(=O)O
parameter_measured: clearance (mL/h/kg)
Answers are plain numbers, in mL/h/kg.

Per the record, [pGlu]GSPSGIVTS[αMeL]DVPT[Aib][αMeL]LQKILEQERAEKARQQAK([γGlu-AEEA-εLys-C20 diacid])EAAEILAQV-NH2 [SEQ ID NO: 22] has clearance of 2.12

###

experiment: Pharmacokinetics in Sprague Dawley rats, single subcutaneous or intravenous dose (incl. 10, 30, 100 nmol/kg dose response); format: in vivo; settings: male, Sprague Dawley, rat, plasma, iv, 190 nmol/kg, single intravenous dose 190 nmol/kg, individual animal
*1 amine or outer side, *2 acyl side, *3 side chain or, on linkers, in order; H or OH if unused. [ ]: non-standard residue; d: D form. The star is where a group is joined. C20 diacid = O=C(O)CCCCCCCCCCCCCCCCCCC(=O)*; γGlu = O=C(O)[C@H](CCC(=O)[*:2])N[*:1]; εLys = N[C@@H](CCCCN[*:1])C(=O)[*:2]; αMeL = CC(C)C[C@](C)(N)C(=O)O; AEEA = NCCOCCOCC(=O)O; Aib = CC(C)(N)C(=O)O
parameter_measured: half-life (h)
Give bare numbers, in h.

In plain terms, {C20 diacid-εLys-AEEA-γGlu}-GSPSIVTS[αMeL]DVPT[Aib][αMeL]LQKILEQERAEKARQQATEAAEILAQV-NH2 [SEQ ID NO: 25] has a documented half-life of 17.4

###

assay: Pharmacokinetics in Sprague Dawley rats, single subcutaneous or intravenous dose (incl. 10, 30, 100 nmol/kg dose response); format: in vivo; details: male, Sprague Dawley, rat, plasma, sc, 30 nmol/kg, dose response, single subcutaneous dose 30 nmol/kg, mean
*1 amine or outer side, *2 acyl side, *3 side chain or, on linkers, in order; H or OH if unused. Side-chain parts run from the residue outwards. [ ]: non-standard residue; d: D form. The star is where a group is joined. C20 diacid = O=C(O)CCCCCCCCCCCCCCCCCCC(=O)*; γGlu = O=C(O)[C@H](CCC(=O)[*:2])N[*:1]; εLys = N[C@@H](CCCCN[*:1])C(=O)[*:2]; pGlu = O=C1CC[C@@H](C(=O)O)N1; αMeL = CC(C)C[C@](C)(N)C(=O)O; AEEA = NCCOCCOCC(=O)O; Aib = CC(C)(N)C(=O)O
Give measured half-life for each item. Keep answers brief.
Answers are plain numbers, in h.

Batch request: half-life for each of the following substances.
1. Ac-GSPSIVTS[αMeL]DVPT[Aib][αMeL]LQKILEQERAEKARQQAK([γGlu-AEEA-εLys-C20 diacid])EAAEILAQV-NH2 [SEQ ID NO: 1]
2. [pGlu]GSPSGIVTS[αMeL]DVPT[Aib][αMeL]LQKILEQERAEKARQQAK([γGlu-AEEA-εLys-C20 diacid])EAAEILAQV-NH2 [SEQ ID NO: 22]
3. {C20 diacid-εLys-AEEA-γGlu}-GSPSIVTS[αMeL]DVPT[Aib][αMeL]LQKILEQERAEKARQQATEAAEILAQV-NH2 [SEQ ID NO: 25]

Result:
34.9
28.4
19.9

###

experiment: Pharmacokinetics in Cynomolgus monkeys, single subcutaneous or intravenous dose; format: in vivo; conditions: both sexes, cynomolgus monkey, plasma, sc, single subcutaneous dose 190 nmol/kg, Mean, read-out: Cmax
*1 amine or outer side, *2 acyl side, *3 side chain or, on linkers, in order; H or OH if unused. [ ]: non-standard residue; d: D form. The star is where a group is joined. C20 diacid = O=C(O)CCCCCCCCCCCCCCCCCCC(=O)*; γGlu = O=C(O)[C@H](CCC(=O)[*:2])N[*:1]; εLys = N[C@@H](CCCCN[*:1])C(=O)[*:2]; αMeL = CC(C)C[C@](C)(N)C(=O)O; AEEA = NCCOCCOCC(=O)O; Aib = CC(C)(N)C(=O)O
parameter_measured: Cmax (nM)
Give bare numbers, in nM.

Per the record, {C20 diacid-εLys-AEEA-γGlu}-GSPSIVTS[αMeL]DVPT[Aib][αMeL]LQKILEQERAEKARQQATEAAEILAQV-NH2 [SEQ ID NO: 25] has Cmax of 1610

###

test: Pharmacokinetics in Cynomolgus monkeys, single subcutaneous or intravenous dose; assay type: in vivo; conditions: both sexes, cynomolgus monkey, plasma, iv, 183 nmol/kg, single intravenous dose 183 nmol/kg, Mean
*1 amine or outer side, *2 acyl side, *3 side chain or, on linkers, in order; H or OH if unused. Side-chain parts run from the residue outwards. [ ]: non-standard residue; d: D form. The star is where a group is joined. C20 diacid = O=C(O)CCCCCCCCCCCCCCCCCCC(=O)*; γGlu = O=C(O)[C@H](CCC(=O)[*:2])N[*:1]; εLys = N[C@@H](CCCCN[*:1])C(=O)[*:2]; pGlu = O=C1CC[C@@H](C(=O)O)N1; αMeL = CC(C)C[C@](C)(N)C(=O)O; AEEA = NCCOCCOCC(=O)O; Aib = CC(C)(N)C(=O)O
parameter_measured: half-life (h)
Give bare numbers, in h.

Lookup result for [pGlu]GSPSGIVTS[αMeL]DVPT[Aib][αMeL]LQKILEQERAEKARQQAK([γGlu-AEEA-εLys-C20 diacid])EAAEILAQV-NH2 [SEQ ID NO: 22] ; measured half-life: 98.1
